Procedure summary: Pharmacokinetic parameter MRT value determined in rat at a dose of 10(umol/kg) following peroral administration (mean+/-SD)
Assay type: ADME, organism-based
Conditions: in vivo, po

{"columns": ["Compound", "MRT, h"],
 "data": [
  ["CCCCC1=NC2(CCCC2)C(=O)N1Cc1ccc(-c2ccccc2S(=O)(=O)Nc2onc(C)c2C)c(CN2CCC(C)(C)C2=O)c1 [BMS-248360]", 5]
]}

====

Procedure summary: A dose of 10 (umol/kg) was administered pre orally to rat and plasma concentration was reported (mean+/-SD)
Type: ADME, organism-based
Design: dose 10 umol/kg, route oral
Conditions: po

{"columns": ["Molecule smiles", "Value units", "Cmax"],
 "data": [
  ["CCCCC1=NC2(CCCC2)C(=O)N1Cc1ccc(-c2ccccc2S(=O)(=O)Nc2onc(C)c2C)c(CN2CCC(C)(C)C2=O)c1", "µM", 3.1]
]}

====

Procedure summary: Pharmacokinetic parameter Area under curve reported following peroral administration at a dose of 10 (umol/kg) (mean+/-SD)
Type: ADME
Conditions: po
Measurement label: AUC (µM·h)

{"columns": ["Molecule smiles", "Measured value"],
 "data": [
  ["CCCCC1=NC2(CCCC2)C(=O)N1Cc1ccc(-c2ccccc2S(=O)(=O)Nc2onc(C)c2C)c(CN2CCC(C)(C)C2=O)c1", 19]
]}

====

Procedure summary: half life was determined in rat at a dose of 10 (umol/kg) following peroral administration (mean+/-SD)
Assay type: ADME, organism-based
Conditions: in vivo, po
Measurement label: half-life (h)

{"columns": ["Molecule smiles", "Measured value"],
 "data": [
  ["CCCCC1=NC2(CCCC2)C(=O)N1Cc1ccc(-c2ccccc2S(=O)(=O)Nc2onc(C)c2C)c(CN2CCC(C)(C)C2=O)c1", 3]
]}

====

Procedure summary: A dose of 10(umol/kg) was administered orally to rat and % bioavailability was determined
Type: ADME, organism-based
Conditions: in vivo, po, read-out: Bioavailabiility

{"columns": ["Molecule smiles", "bioavailability / %"],
 "data": [
  ["CCCCC1=NC2(CCCC2)C(=O)N1Cc1ccc(-c2ccccc2S(=O)(=O)Nc2onc(C)c2C)c(CN2CCC(C)(C)C2=O)c1", 38]
]}

====

Target desc: Type-1 angiotensin II receptor (Homo sapiens, UniProt P30556)
Sequence (P30556 whole entry): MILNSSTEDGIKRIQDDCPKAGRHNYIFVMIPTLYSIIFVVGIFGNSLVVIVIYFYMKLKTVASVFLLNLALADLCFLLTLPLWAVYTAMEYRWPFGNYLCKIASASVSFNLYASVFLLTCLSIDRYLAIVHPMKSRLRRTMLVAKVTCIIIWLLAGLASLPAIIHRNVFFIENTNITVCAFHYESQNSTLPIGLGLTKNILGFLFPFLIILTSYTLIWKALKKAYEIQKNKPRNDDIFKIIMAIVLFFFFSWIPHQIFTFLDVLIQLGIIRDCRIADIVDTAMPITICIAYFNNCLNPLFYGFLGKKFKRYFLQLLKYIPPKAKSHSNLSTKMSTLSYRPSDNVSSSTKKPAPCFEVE
pIC50: −log10 of the molar value.

{"columns": ["Compound", "Target desc", "pIC50"],
 "data": [
  ["CCCc1cc(Cn2c(CC)nc3c(C)cc(C)nc32)ccc1OC(C(=O)NS(=O)(=O)c1ccc(C(C)C)cc1)c1ccc2c(c1)OCO2 (stereo unspecified)", "Type-1 angiotensin II receptor (Homo sapiens, UniProt P30556)", 7.89]
]}

====

Procedure summary: Pharmacokinetic parameter Plasma clearance determined after intravenous administration at a dose of 10 (umol/kg) (mean+/-SD)
Assay type: ADME, organism-based
Measurement label: clearance (mL/min/kg)

{"columns": ["Compound", "Measured value"],
 "data": [
  ["CCCCC1=NC2(CCCC2)C(=O)N1Cc1ccc(-c2ccccc2S(=O)(=O)Nc2onc(C)c2C)c(CN2CCC(C)(C)C2=O)c1 [BMS-248360]", 3.8]
]}
